assay: Intrinsic clearance in rat liver microsomes assessed per mg protein; type: ADME, microsome; details: read-out: CLH

molecule: CCC(=O)N1CC[C@H](Oc2ncnc3c2CN(c2cnc(OC)c(C(F)(F)F)c2)CC3)C1
microsomal CLint, µL/min/mg: 160

molecule: CCC(=O)N1CC[C@H](Nc2ncnc3c2CN(c2cnc(OC)c(C(F)(F)F)c2)CC3)C1 [LENIOLISIB]
microsomal CLint, µL/min/mg: 55

molecule: COc1ccc(N2CCc3ncnc(-c4cccc(OC5CCN(C(C)=O)CC5)c4)c3C2)cn1
microsomal CLint, µL/min/mg: 197

molecule: COc1ncc(N2CCc3ncnc(O[C@H]4CCN(C(=O)C5CCOCC5)C4)c3C2)cc1C
microsomal CLint, µL/min/mg: 60

Source listed as ChEMBL document CHEMBL4130456.
